Provenance of the data: patent US12459987B2

tested.system: glycoprotein B of HSV-1 (gB-1) (Human herpesvirus 1, UniProt P10211)
experiment: Luminex multiplex assay, binding to gB-1
conditions.used: Table 3 summary
parameter.measured: Target antigens

response.value for HSV010-34: gB-1 specific mouse monoclonal IgG; IgH SEQ ID NO: 40, IgL SEQ ID NO: 42 (antibody, V domains shown, HSV010-34 heavy chain; HSV010-34 light chain) VH: EVQLVESGGGLVQPGESLKLSCESNEYEFPSHDMSWVRKTPEKRLELVAAINSDGGSTYYPDTMERRFIISRDNTKKTLYLQMSSLRSEDTALYYCARHSSGYVLDYWGQGTSVTVSSA VL: DIQMTQSSSYLSVSLGGRVTITCKASDHINHWLAWYQQKPGNAPRLLISGATSLETGVPSRFSGSGSGKDYTLSIASLQTEDVATYYCQQYWSTPYTFGGGTKLEIKR (field: Target antigens) = gB
